# Tested on: Staphylococcus aureus (SA, ATCC 6538)
# experiment notes: Antibacterial activity of synthetic NB_AMPs, microtiter plate method (MIC)
# Assay type: cell-based
# run conditions: synthetic peptides; microtiter plate, 10^6 CFU/mL, O/N culture at 37 °C; peptide stock 10 mg/mL in distilled water
No end group written: not given here.
measurement name: MIC50 against S. aureus (µg/mL)

sequence chain | endpoint value
NYKLLSNSLNILL [NB_AMP8] | 8360
GQYNQGGYGSQGGDYGQGGYGQGSMGGGYG [NB_AMP6] | 5830
WQEIKNSLEDLSDSI [NB_AMP4] | 2950
GLQKYLSWVKNKRL [NB_AMP2] | 230
KGAKKAGKAVKKTVKK [NB_AMP3] | 2880
KKLAAKEKAAAAKEKEAAKKAAAKEKK [NB_AMP9] | 5050

Attribution: paper PMC11941926
